Source of measurements: paper PMC8285372

- tested_target: soluble HLA-A*03:01 class I molecule (fluorescence polarization assay)
- test_name: fluorescence polarisation
reported_metric: IC50 (µM)

P: VVVGARGVGK [KRAS G12R 7-16 peptide]
Q: VVGARGVGK [KRAS G12R 8-16 peptide]
R: ALLAVGATK [gp17-25 peptide, Melanocyte protein PMEL]
Ask | In a descending ranking, list each entry from above by its IC50, from the largest value down to the smallest. Your reply should list the labels following the order given in the request.
Reply | Q, P, R
